protocol.text: chemical genetic growth profiling, strain panel (AID 1159580);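 further: tested at 20 µM; growth read once vehicle control cultures reached saturation at 30 °C; 1 = growth at the plate median or of vehicle wells; lower values mean less growth of the strain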
stated.conditions: S. cerevisiae deletion strains, growth OD, locus YDL192W, strain arf1, active compounds read low
Among all 5,500 compounds or so, about 2,000 (36%) were called active. About 18% were inconclusive and are not listed. Some of the results follow.
measure: normalized growth
Number only, no unit.

So, C#C[C@]1(O)CCC2C3CCC4=C(CCC(=O)C4)C3CC[C@@]21C (stereo partly specified) ? Its normalized growth was 1.01

So, `Cc1cc(O)cc(C)c1Cl` ? Its normalized growth was 1.02

So, `O=C1C(O)=C(O)C(=O)C(O)=C1O` ? Its normalized growth was 0.99

So, `Nc1c2ccccc2nc2ccccc12` ? Its normalized growth was 0.622

So, `Cc1cc(O)cc(=O)o1` ? Its normalized growth was 0.994

So, CCC(C)C(NC)C(=O)O (stereo unspecified) ? Its normalized growth was 1

So, C[C@]12CCC(=O)C=C1CCC1C2[C@@H](O)C[C@@]2(C)C1CC[C@]2(O)C(=O)CO (stereo partly specified) ? Its normalized growth was 0.99

So, `C/C=C(/C)C(=O)O[C@H]1CC[C@@]2(C)[C@@H]3CC[C@H]4[C@]5(O)C[C@H](O)[C@@]6(O)[C@@H](CN7C[C@@H](C)CC[C@H]7[C@@]6(C)O)[C@]5(O)C[C@@]42O[C@]13O` ? Its normalized growth was 0.966

So, Nc1c2c(nc3ccccc13)CCCC2O (stereo unspecified) ? Its normalized growth was 0.987

So, `COc1ccc2[nH]cc(CCN)c2c1` ? Its normalized growth was 0.989

So, C#C[C@]1(O)CCC2C3CCC4=CC(=O)CC[C@@H]4C3CC[C@@]21C (stereo partly specified) ? Its normalized growth was 0.978

###

protocol.text: chemical genetic growth profiling, strain panel (AID 1159580)
stated.conditions: S. cerevisiae deletion strains, growth OD, locus YNL298W, strain CLA4 (second series), active compounds read low
Screen size: about 5,500 compounds; about 2,000 (36%) were called active. Not shown: some 18% with an inconclusive outcome. The list shows a part of the results.
Could you please report measured normalized growth for the items listed next?
Number only, no unit.

So, `CC(C)(C)OC(=O)C(C)(C)S(=O)(=O)c1ccc(Cl)cc1` ? Its normalized growth was 1.02

So, `COc1ccc(-c2n[nH]c(=S)n2-c2cccc(OC)c2)cc1` ? Its normalized growth was 0.957

So, `CC(C)(C)c1ccc(-c2n[nH]c(=S)n2-c2cccc(C(F)(F)F)c2)cc1` ? Its normalized growth was 0.958

So, `O=C(Nc1ccc(Br)cc1Cl)C(Cl)(Cl)Cl` ? Its normalized growth was 0.855

So, `COc1ccc(C(=O)CN2CCN(c3cc(C)nc4ccccc34)CC2)cc1` ? Its normalized growth was 0.975

###

protocol.text: chemical genetic growth profiling, strain panel (AID 1159580)
stated.conditions: S. cerevisiae deletion strains, growth OD, locus YIL073C, strain SPO22
Screen size: about 5,500 compounds; about 2,000 (36%) were called active. Another 18% or so got no clear call; they are omitted. Rule as the data show it: active = normalized growth mostly below about 0.91 (no sharp cut-off); inconclusive = no clear call, values can overlap the other calls; inactive = mostly above about 0.92. The list shows a part of the results.
Outcome (select one): active, inactive

Ask: Assay outcome for Nc1ccccc1C(=O)CC(N)C(=O)O (stereo unspecified) : what was it?
Result: inactive

Ask: Assay outcome for OC(CCN1CCCC1)(c1ccccc1)C1CCCCC1 (stereo unspecified) : what was it?
Result: inactive

Ask: Assay outcome for `C[C@@H]1CC[C@H]2[C@@H](C)C(=O)O[C@@H]3O[C@@]4(C)CC[C@@H]1[C@]32OO4` : what was it?
Result: inactive

Ask: Assay outcome for O=C(O)/C=C1\CCCc2ccccc2C1O (stereo unspecified) : what was it?
Result: inactive

Ask: Assay outcome for C#C[C@]1(O)CCC2C3CCC4=CC(=O)CC[C@@H]4C3CC[C@@]21CC (stereo partly specified) : what was it?
Result: inactive

Ask: Assay outcome for `O=C(COc1ccc(Cl)cc1)N1CCN(Cc2ccc3c(c2)OCO3)CC1` : what was it?
Result: inactive

Ask: Assay outcome for C#C[C@]1(OC(C)=O)CCC2C3CCC4=CC(=O)CC[C@@H]4C3CC[C@@]21C (stereo partly specified) : what was it?
Result: inactive

Ask: Assay outcome for `O=c1[nH]cc(F)c(=O)[nH]1` : what was it?
Result: inactive

Ask: Assay outcome for `O=c1cc(CO)occ1O` : what was it?
Result: inactive

Ask: Assay outcome for C[C@@H]1CC[C@H]2[C@@H](C)C(O)O[C@@H]3O[C@@]4(C)CC[C@@H]1[C@]32OO4 (stereo partly specified) : what was it?
Result: active

Ask: Assay outcome for COc1cccc(OC)c1OCCNCC1COc2ccccc2O1 (stereo unspecified) : what was it?
Result: inactive

###

protocol.text: chemical genetic growth profiling, strain panel (AID 1159580);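 further: tested at 20 µM; growth read once vehicle control cultures reached saturation at 30 °C; 1 = growth at the plate median or of vehicle wells; lower values mean less growth of the strain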
stated.conditions: S. cerevisiae deletion strains, growth OD, locus YLR371W, strain rom2
The whole screen tested about 5,500 compounds, of which about 2,000 (36%) were called active. Roughly 18% stayed inconclusive and do not appear here. No stated cut-off is given here; in the data, active means normalized growth mostly below about 0.91 (no sharp cut-off); inconclusive means no clear call, values can overlap the other calls; inactive means mostly above about 0.92. The list shows a part of the results.
Outcome (select one): 1 (yes) for active, 0 (no) for inactive

Ask: Assay outcome for C[C@H]1[C@H](C)CC[C@]2(CO)CC[C@]3(C)C(=CCC4[C@@]5(C)CC[C@H](O)C(C)(C)C5CC[C@]43C)[C@H]12 (some centres not stated) : what was it?
Result: 0 (no)

Ask: Assay outcome for C[C@@H]1OC(O[C@H]2[C@H](OC(=O)[C@]34CCC(C)(C)CC3C3=CCC5[C@@]6(C)CC[C@H](OC7O[C@@H](C)[C@H](O[C@@H]8OC[C@@H](O)[C@H](O)[C@H]8O)[C@@H](O)[C@H]7O)C(C)(C)C6CC[C@@]5(C)[C@]3(C)CC4O)OC[C@H](O)[C@H]2O)[C@H](O)[C@H](O)[C@H]1O[C@@H]1O[C@H](CO)[C@@H](O)[C@H](O)[C@H]1O (some centres not stated) : what was it?
Result: 1 (yes)

###

protocol.text: chemical genetic growth profiling, strain panel (AID 1159580);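 further: tested at 20 µM; growth read once vehicle control cultures reached saturation at 30 °C; 1 = growth at the plate median or of vehicle wells; lower values mean less growth of the strain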
stated.conditions: S. cerevisiae deletion strains, growth OD, locus YLR330W, strain CHS5, active compounds read low
Among all 5,500 compounds or so, about 2,000 (36%) were called active. Inconclusive results (about 18%) are left out. Some of the results follow.
Could you please report measured normalized growth for the items listed next?
Number only, no unit.

So, `COc1cc(C(=O)O[C@H]2CC[C@@]3(C)[C@@H]4CC[C@H]5[C@]6(O)C[C@H](O)[C@@]7(O)[C@@H](CN8C[C@@H](C)CC[C@H]8[C@@]7(C)O)[C@]6(O)C[C@@]53O[C@]24O)cc(OC)c1OC` ? Its normalized growth was 1

So, CC(=O)NC(C(=O)O)C(C)(C)SN=O (configuration not stated) ? Its normalized growth was 0.994

So, COC(=O)C[C@H]1C(C)(C)C(=O)[C@@H]2CC3C4=CC(=O)O[C@@H](c5ccoc5)[C@]4(C)CCC3[C@@]1(C)C2=O (some centres not stated) ? Its normalized growth was 0.983

So, `Nc1ccc(S(=O)(=O)Nc2ccnn2-c2ccccc2)cc1` ? Its normalized growth was 1

So, C/C=C(/C)C(=O)OC1CCC2(C)C3CCC4C5(O)CC(O)C6(O)C(CN7CC(C)CCC7C6(C)O)C5(O)CC42OC13O (configuration not stated) ? Its normalized growth was 0.902

So, `C/C=C(/C)C(=O)O[C@H]1CC[C@@]2(C)[C@@H]3CC[C@H]4[C@]5(O)C[C@H](O)[C@@]6(O)[C@@H](CN7C[C@@H](C)CC[C@H]7[C@@]6(C)O)[C@]5(O)C[C@@]42O[C@]13O` ? Its normalized growth was 0.986

So, COc1cccc(OC)c1OCCNCC1COc2ccccc2O1 (configuration not stated) ? Its normalized growth was 1.01

###

protocol.text: chemical genetic growth profiling, strain panel (AID 1159580);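 further: tested at 20 µM; growth read once vehicle control cultures reached saturation at 30 °C; 1 = growth at the plate median or of vehicle wells; lower values mean less growth of the strain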
stated.conditions: S. cerevisiae deletion strains, growth OD, locus YDR502C, strain sam2, active compounds read low
Out of some 5,500 compounds screened, about 2,000 (36%) were called active. Roughly 18% stayed inconclusive and do not appear here. The list shows a part of the results.
measure: normalized growth
Number only, no unit.

So, `Cc1cn([C@H]2C[C@H](N=[N+]=[N-])[C@@H](CO)O2)c(=O)[nH]c1=O` ? Its normalized growth was 1.02

So, `COC(=O)Nc1nc2ccc(Sc3ccccc3)cc2[nH]1` ? Its normalized growth was 0.98

So, C#C[C@]1(O)CCC2C3CCC4=CC(=O)CC[C@@H]4C3CC[C@@]21CC (stereo not given in full) ? Its normalized growth was 0.984

So, `NC12CC3CC(CC(C3)C1)C2` ? Its normalized growth was 1.01

So, `O=c1[nH]cc(F)c(=O)[nH]1` ? Its normalized growth was 0.657

So, C[C@@H]1OC(O[C@H]2[C@H](O)[C@@H](O)[C@H](OC[C@H]3O[C@@H](OC(=O)[C@]45CCC(C)(C)CC4C4=CCC6[C@@]7(C)CC[C@H](OC8OC[C@H](O)[C@H](O)[C@H]8OC8O[C@@H](C)[C@H](O)[C@@H](O)[C@H]8O)[C@@](C)(CO)C7CC[C@@]6(C)[C@]4(C)CC5)[C@H](O)[C@@H](O)[C@@H]3O)O[C@@H]2CO)[C@H](O)[C@H](O)[C@H]1O (stereo not given in full) ? Its normalized growth was 0.99

So, CC(=O)OC1CC(OC(C)=O)C2(C)C(CC(OC(C)=O)C3(C)C4=CC(=O)OC(=O)C4(C)CCC32)C1(C)C (stereo not given) ? Its normalized growth was 1.02

So, Nc1ccccc1C(=O)CC(N)C(=O)O (stereo not given) ? Its normalized growth was 1

So, `Cc1cc(O)cc(=O)o1` ? Its normalized growth was 1

So, `COC(=O)Nc1nc2ccc(C(=O)c3ccccc3)cc2[nH]1` ? Its normalized growth was 0.958

So, CC(=O)O[C@H]1CC[C@@]2(C)C(CC[C@]3(C)C2C(=O)C=C2C4[C@@H](C)[C@H](C)CC[C@]4(C(=O)O)CC[C@]23C)C1(C)C (stereo not given in full) ? Its normalized growth was 0.982

So, CC(C)=CCCC1(C)C=Cc2c(O)c3c(c(CC=C(C)C)c2O1)OC12C(=CC4CC1C(C)(C)OC2(C/C=C(/C)C(=O)O)C4O)C3=O (stereo not given) ? Its normalized growth was 0.917

So, CC(C)=CCCC1(C)C=Cc2c(O)c3c(c(CC=C(C)C)c2O1)OC12C(CC4CC1C(C)(C)OC2(C/C=C(/C)C(=O)O)C4O)C3=O (stereo not given) ? Its normalized growth was 1.02

So, `C/C=C1\[C@H]2C=C(C)C[C@]1(N)c1ccc(=O)[nH]c1C2` ? Its normalized growth was 1.01

So, `Cc1ccc(-c2cc(C(F)(F)F)nn2-c2ccc(S(N)(=O)=O)cc2)cc1` ? Its normalized growth was 1

So, `Cc1cc(O)cc(C)c1Cl` ? Its normalized growth was 0.949

So, `CC(=O)NCc1c(I)c(NC(C)=O)c(I)c(C(=O)O)c1I` ? Its normalized growth was 1

So, OC(CCN1CCCC1)(c1ccccc1)C1CCCCC1 (stereo not given) ? Its normalized growth was 1

So, `Cc1cc(O)ccc1Cl` ? Its normalized growth was 0.974

So, O=C(O)/C=C1\CCCc2ccccc2C1O (stereo not given) ? Its normalized growth was 0.976

Value source: PubChem BioAssay AID1159580
